Provenance of the data: PubChem BioAssay (NCI)

For each entry below, report its TGI value.
test system: UACC-257 melanoma; assay: NCI tumour cell line growth inhibition, 48 h
State the answer as a number, implicitly in µM.

### Prompt Entry CN(C)/C=N/S(=O)(=O)c1nn2c(C=O)c(-c3ccc(Cl)cc3)nc2s1 needs its TGI filled in; supply it.
### Response 9.83

### Prompt Entry CC(C)c1ccc(C(c2ccc(OCC(=O)O)cc2)c2ccc(C(C)C)cc(=O)c2O)c(O)c(=O)c1 needs its TGI filled in; supply it.
### Response 41.6

### Prompt Entry CC(C)CCCC(=O)CCCCCCC(=O)CCN(O)C(=O)C(N)CO (stereo not given) needs its TGI filled in; supply it.
### Response 35.1

### Prompt Entry COc1cc2c3c(n(C)c(=O)c2cc1OC)-c1cc2c(cc1/C3=C\CNCCCN)OCO2 needs its TGI filled in; supply it.
### Response 2.76

* * *

test system: CCRF-CEM leukemia; assay: NCI tumour cell line growth inhibition, 48 h; in the data active = GI50 below about 0.43 µM; inactive = the rest
One label from this list, please: 1 (yes) = active, 0 (no) = inactive

### Prompt What did this assay record as the result for COC(=O)C12C3C4C1C1C2C3C41NC(=O)c1csc([C@@H](C[C@H](C(C)C)N(C)C(=O)[C@@H](NC(=O)[C@H]2CCCCN2C)C2CC2)OC(C)=O)n1 (stereo partly drawn) ?
### Response 1 (yes)

### Prompt What did this assay record as the result for NCCCn1c2c(c3ccc([N+](=O)[O-])cc3c1=O)C(=O)c1cc(Br)ccc1-2 ?
### Response 1 (yes)

### Prompt What did this assay record as the result for CC(=O)O.[Au].c1ccc([PH+](c2ccccc2)c2ccccc2)cc1 ?
### Response 1 (yes)

### Prompt What did this assay record as the result for O=C1/C(=C/c2ccc(O)cc2)CSc2ccc(Cl)cc21 ?
### Response 0 (no)

### Prompt What did this assay record as the result for CCCCCN(CCCCC)CC(O)c1ccc(Cl)c2ccccc12 (stereo not drawn) ?
### Response 0 (no)

### Prompt What did this assay record as the result for Cn1c2ccccc2c2c3[nH]c(=O)[nH]c(=O)c3c3c4ccccc4n(C)c3c21 ?
### Response 0 (no)

### Prompt What did this assay record as the result for C/C=C1/C(=C/c2[nH]c(/C=c3\[nH]/c(=C/C4=NC(=O)C(CC)=C4C)c(C)c3CCC(=O)O)c(CCC(=O)O)c2C)NC(=O)C1C (stereo not drawn) ?
### Response 0 (no)

### Prompt What did this assay record as the result for Cc1ccc(NC(=O)NCCCOc2ccc(N3C(N)=NC(N)=NC3(C)C)cc2Cl)cc1S(=O)(=O)F ?
### Response 0 (no)

* * *

For each entry below, report its TGI value.
system: NCI-H23 lung; assay: NCI tumour cell line growth inhibition, 48 h
State the answer as a number, implicitly in µM.

### Prompt Entry O=C1/C(=C/c2ccc(O)cc2)CSc2ccc(Cl)cc21 needs its TGI filled in; supply it.
### Response 46

### Prompt Entry NC(N)=N/N=C/c1c(-c2cccc([N+](=O)[O-])c2)nc2n1CCS2 needs its TGI filled in; supply it.
### Response 58.9

* * *

tested on: COLO 205 colon; assay: NCI tumour cell line growth inhibition, 48 h; in the data active = GI50 below about 0.43 µM; inactive = the rest
One label from this list, please: active, inactive

### Prompt What did this assay record as the result for Cc1ccc(NC(=O)NCCCOc2ccc(N3C(N)=NC(N)=NC3(C)C)cc2Cl)cc1S(=O)(=O)F ?
### Response inactive

### Prompt What did this assay record as the result for CCOC(=O)c1c(C)nc2c(c1N)/C(=C/c1ccc(OC)cc1)C(=O)N2Cc1ccc(F)cc1 ?
### Response active

### Prompt What did this assay record as the result for O=C1NN(C2=NNC3(C(=O)N2)c2ccccc2-c2ccccc23)C(c2ccccc2)=N/C1=C/c1ccc(O)cc1 ?
### Response inactive

### Prompt What did this assay record as the result for Nc1nc(-c2cccc(Cl)c2)c(-c2ccc3ncccc3n2)s1 ?
### Response inactive

### Prompt What did this assay record as the result for Cc1cc(O)c(C(C)(C)C)cc1Sc1cc(C(C)(C)C)c(O)cc1C ?
### Response inactive

### Prompt What did this assay record as the result for COc1ccccc1Cn1cc2c(c1-c1ccccc1)CCc1cnoc1-2 ?
### Response inactive

### Prompt What did this assay record as the result for O=S1(=O)N(CCNc2nccc(-c3c(-c4cccc(O)c4)nc4sccn34)n2)CCN1Cc1ccccc1 ?
### Response inactive

### Prompt What did this assay record as the result for COc1ccc(/C=C\c2cc(OC)c(OC)c(OC)c2)cc1OC(=O)NCCN(C)C ?
### Response active

### Prompt What did this assay record as the result for CC(=O)O.[Au].c1ccc([PH+](c2ccccc2)c2ccccc2)cc1 ?
### Response inactive

### Prompt What did this assay record as the result for C=C(C)C1CCC2(C(=O)O)CCC3(C)C(CCC4C5(C)CCC(OC(=O)NCc6ccccc6)C(C)(C)C5CCC43C)C12 (centres undefined) ?
### Response inactive

### Prompt What did this assay record as the result for COc1cc2c3c(n(C)c(=O)c2cc1OC)-c1cc2c(cc1/C3=C\CNCCCN)OCO2 ?
### Response active

### Prompt What did this assay record as the result for COc1ccc(-n2cc(-c3cc(OC)c(OC)c(OC)c3)[nH]c2=O)cc1Cl ?
### Response inactive

### Prompt What did this assay record as the result for O=C1/C(=C/c2ccc(O)cc2)CSc2ccc(Cl)cc21 ?
### Response inactive

### Prompt What did this assay record as the result for COc1ccc(OC)c(C(=O)c2oc3ccc(Br)cc3c2N)c1 ?
### Response active

### Prompt What did this assay record as the result for CC1(C)N=C(N)N=C(N)N1c1ccc(OCc2ccc(S(=O)(=O)F)c(Cl)c2)c(Cl)c1 ?
### Response inactive

### Prompt What did this assay record as the result for C=C1C(=O)O[C@H]2[C@H]1CC/C(COC(=O)c1cc3ccccc3s1)=C\CC[C@@]1(C)O[C@@H]21 ?
### Response inactive

### Prompt What did this assay record as the result for O=C(O)[C@@H]1CCCCN1Cc1cc2cc3c(cc2c2cc(OCc4ccccc4)ccc12)OCO3 ?
### Response inactive

### Prompt What did this assay record as the result for Cc1ccc2c3c(c(=O)[nH]c2c1)C1(C(C#N)=C(N)O3)c2cc(Br)ccc2-c2ccc(Br)cc21 ?
### Response inactive

### Prompt What did this assay record as the result for Cc1ccc(C(=O)Nc2ccc(CN3CCN(C)CC3)c(C(F)(F)F)c2)cc1C#Cc1cnc(N)c2ccccc12 ?
### Response inactive

* * *

tested on: HCT-116 colon; assay: NCI tumour cell line growth inhibition, 48 h
Readout Kind: TGI

### Prompt Entry Cc1ccc(C(=O)Nc2ccc(CN3CCN(C)CC3)c(C(F)(F)F)c2)cc1C#Cc1cnc(N)c2ccccc12 needs its TGI filled in; supply it.
### Response 1.01 µM

### Prompt Entry CC(C)(C)c1ccc(-c2nc3ccc(Cl)cc3c(=O)o2)cc1 needs its TGI filled in; supply it.
### Response 40.5 µM

### Prompt Entry Cc1ccc(C)c(COCCOCn2ccc(N)nc2=O)c1 needs its TGI filled in; supply it.
### Response > 100 µM

### Prompt Entry C/C=C1/C(=C/c2[nH]c(/C=c3\[nH]/c(=C/C4=NC(=O)C(CC)=C4C)c(C)c3CCC(=O)O)c(CCC(=O)O)c2C)NC(=O)C1C (stereo not given) needs its TGI filled in; supply it.
### Response > 150 µg/mL

### Prompt Entry O=C1NCCCNCCCNCCCNC(=O)c2cccc1n2 needs its TGI filled in; supply it.
### Response > 100 µM

### Prompt Entry O=C1O/C(=C(/Br)c2ccc(Cl)c(Cl)c2)c2ccccc21 needs its TGI filled in; supply it.
### Response > 10 µM

### Prompt Entry COC(C(O)c1ccc2c(c1)OCO2)P(=O)(c1ccccc1)c1ccccc1 (stereo not given) needs its TGI filled in; supply it.
### Response > 100 µM

### Prompt Entry CCCCOC(=O)NC(=O)c1cn(C2CCCCC2)c(=O)[nH]c1=O needs its TGI filled in; supply it.
### Response 50.1 µM

### Prompt Entry CC(C)Oc1ccc2c(c1)OCC1Cc3ccccc3OC21 (stereo not given) needs its TGI filled in; supply it.
### Response > 100 µM

### Prompt Entry FC(F)(F)c1nc(-c2ccccc2)oc1Sc1nnc(Sc2oc(-c3ccccc3)nc2C(F)(F)F)s1 needs its TGI filled in; supply it.
### Response > 100 µM

* * *

tested on: IGROV1 ovarian; assay: NCI tumour cell line growth inhibition, 48 h; in the data active = GI50 below about 0.43 µM; inactive = the rest
One label from this list, please: active, inactive

### Prompt What did this assay record as the result for Cc1ccc2[nH]c(C(=O)NN3C(=O)C(C)SC34CCCC(C)C4)c(-c3ccccc3)c2c1 (stereo not given) ?
### Response inactive

### Prompt What did this assay record as the result for Fc1ccc(-c2nn3ncccc3c2-c2ccnc(Nc3ccc4c(c3)OCCO4)n2)cc1 ?
### Response inactive

### Prompt What did this assay record as the result for C=C1C(=O)O[C@H]2[C@H]1CC/C(COC(=O)c1cc3ccccc3s1)=C\CC[C@@]1(C)O[C@@H]21 ?
### Response inactive

### Prompt What did this assay record as the result for COc1ccc(-n2cc(-c3cc(OC)c(OC)c(OC)c3)[nH]c2=O)cc1Cl ?
### Response inactive

### Prompt What did this assay record as the result for C/C(=N\Nc1ccc(Cl)cn1)c1ccccn1 ?
### Response active
